These measurements were taken from patent US11952330B2.

What MIC was measured for each of the following?
Test system: A. baumannii
assay.info: MIC by broth dilution, A. baumannii
Format: cell-based
measurement.context: Acinetobacter baumannii; Mueller-Hinton broth, overnight 37° C.; Table 1; read-out: MIC (μg/mL) A. baumannii

// for each molecule in input: emit MIC
1. CCCCCCCCOc1ccccc1C(=O)Nc1ccc(C(=O)OCCCC[N+](C)(C)C)cc1.[I-] [Compound 46]
2. CCCCCCCCOc1ccccc1C(=O)Nc1ccc(C(=O)NC2CC[N+](CC)(CCC)CC2)cc1.[Br-] (stereo not shown) [Compound 84]
3. CCCCCCCCOc1ccccc1C(=O)Nc1ccc(C(=O)OCC[N+](CC)(CC)CCCCCC)cc1.[Br-] [Compound 36]
4. CC[N+](C)(CC)CCOC(=O)c1ccc(NC(=O)c2ccccc2OC2CCC(C)CC2)cc1.[Br-] (stereo not shown) [Compound 98]

1. > 30 µg/mL
2. > 30 µg/mL
3. 3 to 30 µg/mL
4. > 30 µg/mL
